Values were extracted from PubChem BioAssay (NCI).

System: NCI-H23 lung
Assay: NCI tumour cell line growth inhibition, 48 h
Please provide measured TGI for the entries that follow.
Field format: number, assumed µM, no unit text.

Recorded TGI (compound CC(C(=O)C(C)O[Si](c1ccccc1)(c1ccccc1)C(C)(C)C)=P(c1ccccc1)(c1ccccc1)c1ccccc1 (stereo not given) ): 15.5

Recorded TGI (compound CCN(CC)CCn1nc2c3c(cccc3c1=O)-c1ccccc1-2 ): 8.98

Recorded TGI (compound NC(=S)c1cn(C2OC(CO)C(O)C2O)c2ncnc(N)c12 (stereo not given) ): 0.677

----------
Test system: HCC-2998 colon
Assay: NCI tumour cell line growth inhibition, 48 h
Please provide measured GI50 for the entries that follow.

Recorded GI50 (compound COC(=O)CCCCCCCCC(=O)c1c(C)[nH]c(/C=C2\N=C(c3ccc[nH]3)C=C2OC)c1C ): > 26.9 µM

Recorded GI50 (compound CCN(CC)c1ccc(/C=C2/NC(=O)NC2=O)cc1 ): 16.2 µM

Recorded GI50 (compound Cc1cncc2cccc(S(=O)(=O)N3CCCNC[C@@H]3C)c12 ): > 88.9 µM

Recorded GI50 (compound O=C1c2ccccc2-c2c1c1ccccc1c(=O)n2CCCNCCO ): 1.28 µM

Recorded GI50 (compound Cn1cc(C2=C(c3cccc(Cl)c3)C(=O)NC2=O)c2ccccc21 ): 9.59 µM

Recorded GI50 (compound O=C(CN1CCN(c2cc3c(cc2F)c(=O)c(C(=O)O)cn3C2CC2)CC1)Nc1ccc(C(=O)/C=C/c2ccccc2)cc1 ): 39.6 µM

Recorded GI50 (compound O=C(N/N=C\c1cc(Br)cc(Br)c1O)N/N=C/c1cc(Br)cc(Br)c1O ): 13.4 µM

Recorded GI50 (compound c1ccc(-c2nn(-c3ccccc3)[n+](-c3ccccc3-c3ccccc3)n2)cc1 ): 0.94 µM

Recorded GI50 (compound CCN(CC)CCn1nc2c3c(cccc3c1=O)-c1ccccc1-2 ): 2 µM

----------
Please provide measured TGI for the entries that follow.
Test system: NCI-H226 lung
Assay: NCI tumour cell line growth inhibition, 48 h

Recorded TGI (compound COc1ccc(C2CCc3c(cnc4nc(N)nc(N)c34)C2)cc1 (centres undefined) ): > 100 µM

Recorded TGI (compound COC(=O)C1=C(c2cc(OC)c(OC)c(OC)c2)OC(c2cc(OC)c(OC)c(OC)c2)C1 (centres undefined) ): 75.4 µM

Recorded TGI (compound CC[C@@]1(O)C(=O)N(CCN(C)C)Cc2c1cc1n(c2=O)Cc2cc3ccccc3nc2-1 ): > 100 µM

Recorded TGI (compound C/C(=N/NC(=O)c1ccccc1Nc1ccccc1C(=O)N/N=C(\C)c1ccc(C)cc1)c1ccc(C)cc1 ): > 100 µM

Recorded TGI (compound Cc1ccc(S(=O)(=O)N/N=C/CN2C(=O)c3ccccc3C2=O)cc1 ): > 100 µM

Recorded TGI (compound C/C(=C\c1ccccc1)n1c(=O)cc(C)n1C ): > 100 µM

Recorded TGI (compound O=C(CN1CCN(c2cc3c(cc2F)c(=O)c(C(=O)O)cn3C2CC2)CC1)Nc1ccc(C(=O)/C=C/c2ccccc2)cc1 ): > 100 µM

Recorded TGI (compound CC(=O)OC1CC2C(C)(C)C(=O)C=C[C@]2(C)C2CCC3(C)C(=CCC3[C@H](CO)C[C@H](O)C(=O)C(C)(C)O)[C@]12C (some centres undefined) ): 42.2 µM

Recorded TGI (compound CN(C)CC(C)(C)C(=O)/C=C/c1ccccc1 ): 29.3 µM

----------
System: HS 578T breast
Test: NCI tumour cell line growth inhibition, 48 h; in the data active = GI50 below about 0.43 µM; inactive = the rest
Pick one and only one: active, inactive

How did this test come out for COc1ccc(C2C3=C(COC3=O)N(CCO)c3cc4c(cc32)CCC4)cc1OC (stereo not drawn) ?
inactive

How did this test come out for CCN1CCN(c2nc(NNC(=O)c3cccc(OC)c3)nc(N3CCN(C(c4ccccc4)c4ccccc4)CC3)n2)CC1 ?
inactive

How did this test come out for CCN(CC)c1ccc(/C=C2/NC(=O)NC2=O)cc1 ?
inactive

How did this test come out for COC(=O)C12CC(NC(=O)c3csc([C@@H](C[C@H](C(C)C)N(C)C(=O)[C@@H](NC(=O)[C@H]4CCCCN4C)C(C)C)OC(C)=O)n3)(C1)C2 ?
active

How did this test come out for COC(=O)[C@@H](C)C[C@H](Cc1ccccc1)NC(=O)c1csc([C@@H](C[C@H](C(C)C)N(C)C(=O)[C@@H](NC(=O)CN(C)C)C2CC2)OC(C)=O)n1 ?
active

How did this test come out for Nc1cc2ccncc2c2ccccc12 ?
inactive

How did this test come out for Cc1c(-c2ccnc(N)n2)c2c(n1-c1ccccc1)C(=O)c1ccccc1C2=O ?
inactive

How did this test come out for CC(=O)O[C@H]1Cc2c([nH]c3ccccc23)[C@@H](c2ccc(Cl)cc2)N1C(=O)CCNC(C)(C)C ?
inactive

----------
System: OVCAR-3 ovarian
Assay: NCI tumour cell line growth inhibition, 48 h
READOUT_TYPE: TGI

Recorded TGI (compound Cc1cccc(Cc2cnc(NC(=O)/C=C/c3ccco3)s2)c1 ): 0.0914 µM

Recorded TGI (compound C[S+](C)C1(c2ccccc2)C(=O)c2ccccc2C1=O ): > 100 µM

Recorded TGI (compound CCCN(CCC)c1c([N+](=O)[O-])cc(C(N)=O)cc1[N+](=O)[O-] ): > 100 µM

Recorded TGI (compound CCOC(=O)C1=C(C)N(c2ccc(Cl)cc2)C2(O)C=CC(=O)C3C(=O)N(c4ccccc4)C(=O)C132 (stereo not given) ): 2.75 µM

Recorded TGI (compound O=C(/C=C/c1ccc(OCCCOc2ccc(/C=C/C(=O)c3ccc(Cl)cc3)cc2)cc1)c1ccc(Cl)cc1 ): > 100 µM

Recorded TGI (compound O=C(CSCC(=O)N/N=C\c1cccc(Br)c1)N/N=C\c1cccc(Br)c1 ): 26.6 µM

Recorded TGI (compound CCN(CC)Cc1cc(Nc2c3ccc(Cl)cc3nc3c(C)cccc23)ccc1O ): 3.73 µM

Recorded TGI (compound CCN(CC)c1ccc(/C=C2/NC(=O)NC2=O)cc1 ): 7.18 µM

Recorded TGI (compound C=C1CC2C[C@H](OS(=O)(=O)c3ccc(C)cc3)C(C1)N2C (stereo not given in full) ): > 100 µM

Recorded TGI (compound C[C@@H]1CC[C@H]2C(CN(C)CC3=C(C(F)(F)F)O[C@@H]4O[C@@]5(C)CC[C@H]6[C@H](C)CC[C@@H]3[C@@]46OO5)=C(C(F)(F)F)O[C@@H]3O[C@@]4(C)CC[C@@H]1[C@]32OO4 ): 12.1 µM

Recorded TGI (compound C/C(=C\c1ccccc1)n1c(=O)cc(C)n1C ): > 100 µM

Recorded TGI (compound COc1cc2ccc(C(=O)O)cc2cc1OC ): > 100 µM

Recorded TGI (compound Cn1c(-c2cccs2)cc(-c2ccsc2)c1-c1ccsc1 ): > 100 µM

Recorded TGI (compound Clc1ccc(C2=NNC(c3cccc(Cl)c3)C2)cc1 (stereo not given) ): > 100 µM

Recorded TGI (compound O=C(Nc1ccccc1C(=O)O)C(=Cc1ccccc1O)NC(=O)c1ccccc1 ): > 100 µM

Recorded TGI (compound CCOC(=O)CCC1(C(=O)O[C@@H]2C[C@H](C)CC[C@H]2C(C)C)CCCCC1=O (stereo not given in full) ): > 100 µM

Recorded TGI (compound Cn1cc(C2=C(c3cn(C)c4cc(Cl)ccc34)C(=O)NC2=O)c2ccccc21 ): 0.154 µM

Recorded TGI (compound NC(=O)c1nnc2c(F)cccc2c1N ): > 100 µM

Recorded TGI (compound C=C(C)[C@@H]1CC[C@@H]2C(=CC[C@]3(C)C([C@H](C)CC/C=C(/C)C(=O)O)CC[C@@]23C)[C@@]1(C)CCC(=O)O (stereo not given in full) ): 44.6 µM

Recorded TGI (compound CC(=O)OCC12C(OC(C)=O)C[C@@H](C)C3(CC(c4ccoc4)OC3=O)C1CCC(OC(C)=O)C21CO1 (stereo not given in full) ): > 100 µM

----------
System: IGROV1 ovarian
Experiment: NCI tumour cell line growth inhibition, 48 h
*1 amine or outer side, *2 acyl side, *3 side chain or, on linkers, in order; H or OH if unused. Where a SMILES comes first, the peptide text is derived from it. [ ]: non-standard residue; d: D form. The star is where a group is joined. X12 = NCCCCC(N[*:1])C(=O)CN1CCCC1C(=O)[*:2]; Pentadecanoyl = CCCCCCCCCCCCCCC(=O)*
READOUT_TYPE: TGI

Recorded TGI (compound CN1CCN(Cc2ccc(NC(=O)c3cncc(C#Cc4cncc5[nH]ncc45)c3)cc2C(F)(F)F)CC1 ): 1.45 µM

Recorded TGI (compound CCOC(=O)CCC(NC(=O)c1ccc(Nc2nc3cc(N)cc(N)c3nc2-c2ccccc2)cc1)C(=O)OCC (stereo not drawn) ): > 94.7 µM

Recorded TGI (compound O=C1CCC(=O)C(C(=O)CCC(=O)Nc2ccc(Cl)cc2)C1 (stereo not drawn) ): > 100 µM

Recorded TGI (compound NC(=S)c1cn(C2OC(CO)C(O)C2O)c2ncnc(N)c12 (stereo not drawn) ): 0.586 µM

Recorded TGI (compound COC1OC2COC(c3ccccc3)OC2C(OC(=S)c2ccccc2)C1O (stereo not drawn) ): > 100 µM

Recorded TGI (compound NS(=O)(=O)c1ccc(NS(=O)(=O)c2ccc(NC(=O)N(c3ccccc3)c3ccccc3)cc2)cc1 ): > 100 µM

Recorded TGI (compound C[S+](C)C1(c2ccccc2)C(=O)c2ccccc2C1=O ): > 100 µM

Recorded TGI (compound O=C(/C=C/c1ccc(OCCCOc2ccc(/C=C/C(=O)c3ccc(Cl)cc3)cc2)cc1)c1ccc(Cl)cc1 ): > 100 µM

Recorded TGI (compound CCOC(=O)N1c2c(c3ccccc3n2C(=O)OCC)C(=O)C(OC)N1C(=O)OCC (stereo not drawn) ): > 100 µM

Recorded TGI (compound c1ccc(C2C3=C(CCCC3)Nc3nnnn32)cc1 (stereo not drawn) ): > 100 µM

Recorded TGI (compound O=C1NC(=Nc2ccccc2Cl)SC1C(=O)Nc1ccc([N+](=O)[O-])cc1[N+](=O)[O-] (stereo not drawn) ): > 100 µM

Recorded TGI (compound CCOC(=O)Nc1ccc2nc(Sc3ccc(Cl)cc3)sc2c1 ): > 100 µM

Recorded TGI (compound Fc1ccc(-c2ncn(C3CCNCC3)c2-c2ccnc(Oc3ccc(Oc4ccccc4)cc3)n2)cc1 ): 7.5 µM

Recorded TGI (compound Cc1cccc(-c2cc(=O)c3cc(C)cnc3[nH]2)c1 ): > 100 µM

Recorded TGI (compound Cn1cc(C2=C(c3cn(C)c4cc(Cl)ccc34)C(=O)NC2=O)c2ccccc21 ): > 13.2 µM

Recorded TGI (compound c1ccc2c(Nc3ccc4c(c3)OCO4)c3ccoc3nc2c1 ): > 100 µM

Recorded TGI (compound Cc1ccc(S(=O)(=O)N/N=C/CN2C(=O)c3ccccc3C2=O)cc1 ): > 100 µM

Recorded TGI (compound N#CCCCCCn1c2ccccc2c2c3c(c4c5ccccc5[nH]c4c21)C(=O)N(O)C3=O ): 3.89 µM

Recorded TGI (compound C/C(=N/OCCC(=O)O)C1CC1 ): > 100 µM

Recorded TGI (compound N#CC(NNC(=O)c1c(Cl)c(Cl)c(Cl)c(Cl)c1-c1nc2ccc(C(=O)c3ccccc3)cc2[nH]1)c1cccc(Oc2ccccc2)c1 (stereo not drawn) ): 93.1 µM

Recorded TGI (compound CCn1c(-c2nonc2N)nc2c(C#CC(C)(C)O)ncc(OCC3CCNCC3)c21 ): > 25 µM

Recorded TGI (compound N#Cc1c(NC(=S)Nc2ccccc2)sc2c1CCCC2 ): > 100 µM

Recorded TGI (compound COc1ccc(C(=O)C(CN(C)C)c2ccccc2)cc1 (stereo not drawn) ): 5.74 µM

Recorded TGI (compound Clc1ccc2c(NCCNc3nc(Cl)nc4ccccc34)ccnc2c1 ): 2.7 µM

Recorded TGI (compound COc1cc(OC)cc(-c2nc3ccccc3c(=O)[nH]2)c1 ): > 100 µM

Recorded TGI (compound CCOC(=O)c1sc2[n+](c1C)C(=O)/C(=C/c1ccccc1Cl)S2 ): 23.3 µM

Recorded TGI (compound O=c1[nH]c(=O)c2c([nH]1)[nH]c1ccccc12 ): > 100 µM

Recorded TGI (compound COc1ccc2c(c1)/C(=N/OC(C)=O)c1c-2c(Nc2ccc(/C(C)=N/OC(C)=O)cc2)nc2ccccc12 ): > 100 µM

Recorded TGI (compound CCCCCCCCCCCCCCC(=O)NC(CCCCN)C(=O)CN1CCCC1C(=O)NCC(=O)NC(Cc1ccccc1)C(=O)N1CCCC1C(=O)NC(CO)C(=O)NC(Cc1ccc(O)cc1)C(=O)NC(CCCCN)C(=O)NC(CC(C)C)C(=O)NC(CCCN=C(N)N)C(=O)N1CCCC1C(=O)NCC(N)=O (stereo not drawn) (Pentadecanoyl-[X12]GFPSYKLRPG-NH2; configuration not given here) ): 57.3 µM

Recorded TGI (compound CCOC(=O)C1=C(C)N(c2ccc(Cl)cc2)C2(O)C=CC(=O)C3C(=O)N(c4ccccc4)C(=O)C132 (stereo not drawn) ): 3.11 µM

Recorded TGI (compound O=C(OCC(OC(=O)c1ccccc1)C1CC(C(O)C2CCCCC2)C(=O)O1)c1ccccc1 (stereo not drawn) ): > 100 µM

Recorded TGI (compound C=C(C)[C@@H]1CC[C@@H]2C(=CC[C@]3(C)C([C@H](C)CC/C=C(/C)C(=O)O)CC[C@@]23C)[C@@]1(C)CCC(=O)O (stereo partly drawn) ): 88.8 µM

Recorded TGI (compound COc1ccc(C2=C(N)c3cc(OC)ccc3C2=O)cc1 ): > 100 µM
